Literature compilation of IC50 measurements on ALK tyrosine kinase receptor (Homo sapiens).
metric: IC50

• N#Cc1c(F)ccc(F)c1CN1CCNc2ncc(-c3ccc(N4CCOCC4)nc3)cc21 = < 0.1 µM
• CCN(CCO)CC(=O)N1CCc2cc(OC)c(Nc3nc(Nc4cccc(F)c4C(N)=O)c4cc[nH]c4n3)cc21 = 0.00126 to 0.00398 µM
• O=C(c1cccc(-c2cnc3c(c2)N(Cc2ccccc2)C(=O)CN3)c1)N1CCCC1 = 1 to 10 µM
• O=C(c1cccc(-c2cnc3c(c2)N(Cc2cc(Cl)ccc2C(F)(F)F)CCN3)c1)N1CCN(c2ccc(Cl)cc2)CC1 = 0.1 to 1 µM
• COc1cc2c(cc1Nc1nc(Nc3cccc(F)c3C(N)=O)c3cc[nH]c3n1)N(C(=O)CN1CCCC1)CCC2(C)C = 0.000251 to 0.001 µM
• CN1CCC(N2C(=O)c3cc4nc(-c5c(NC[C@@H](O)COc6cccc7[nH]ccc67)ccnc5O)[nH]c4cc3C2=O)CC1 = < 0.5 µM
• Cc1n[nH]c2nc(-c3ccc(O)cc3F)c(C#N)c(-c3ccc(N4CCNCC4)s3)c12 = < 0.1 µM
